# assay.system: BRAF^V600E protein (Homo sapiens, UniProt P15056, V600E)
# Sequence (P15056 whole entry V600E): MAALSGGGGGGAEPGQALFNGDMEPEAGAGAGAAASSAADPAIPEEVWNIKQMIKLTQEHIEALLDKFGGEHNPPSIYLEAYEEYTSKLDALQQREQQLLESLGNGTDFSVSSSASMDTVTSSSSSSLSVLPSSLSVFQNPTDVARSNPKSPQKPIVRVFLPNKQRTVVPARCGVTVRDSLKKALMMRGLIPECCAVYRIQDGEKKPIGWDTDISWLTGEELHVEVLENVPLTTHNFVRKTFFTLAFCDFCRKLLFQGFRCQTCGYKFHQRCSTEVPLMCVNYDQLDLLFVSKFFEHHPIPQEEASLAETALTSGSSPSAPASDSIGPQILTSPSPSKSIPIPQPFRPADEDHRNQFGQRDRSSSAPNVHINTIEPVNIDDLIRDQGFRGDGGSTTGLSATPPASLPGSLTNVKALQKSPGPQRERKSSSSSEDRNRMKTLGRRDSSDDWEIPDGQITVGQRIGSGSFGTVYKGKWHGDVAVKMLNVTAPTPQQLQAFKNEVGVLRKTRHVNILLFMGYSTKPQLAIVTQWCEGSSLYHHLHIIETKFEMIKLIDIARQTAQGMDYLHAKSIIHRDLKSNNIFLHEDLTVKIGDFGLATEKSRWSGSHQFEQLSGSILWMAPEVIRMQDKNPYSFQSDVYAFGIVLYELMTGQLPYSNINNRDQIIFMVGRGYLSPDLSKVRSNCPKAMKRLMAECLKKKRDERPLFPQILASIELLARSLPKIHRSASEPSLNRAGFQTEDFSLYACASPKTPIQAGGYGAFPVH
# procedure.text: HiBiT cellular BRAF V600E degradation assay
# Format: cell-based
# condition.description: A375.10 cells, 24 h incubation; Emax = amount of residual protein remaining in the cell after compound treatment; read-out: HiBit 24 h Emax
metric.name: Emax (%)

>  <molecule>
O=C1CCC(Oc2ccc(C3CCN(CC(=O)N4CC5(C4)CN(c4ccc(-c6cnc7[nH]cc(C(=O)c8c(F)ccc(NS(=O)(=O)N9CCCC9)c8F)c7c6)cc4)C5)CC3)cc2)C(=O)N1 (centres unmarked)

>  <Emax (%)>
8

$$$$
>  <molecule>
CCN(C)S(=O)(=O)Nc1ccc(F)c(C(=O)c2c[nH]c3ncc(-c4cnc(N5CCN(C(=O)NC6CCN(c7ccc(NC8CCC(=O)NC8=O)cc7F)CC6)CC5)nc4)cc23)c1F (centres unmarked)

>  <Emax (%)>
7.71

$$$$
>  <molecule>
CCN(C)S(=O)(=O)Nc1ccc(F)c(C(=O)c2c[nH]c3ncc(-c4cnc(N5CCN(C(=O)CN6CCC(c7ccc8c(N9CCC(=O)NC9=O)nn(C)c8c7)C(F)(F)C6)CC5)nc4)cc23)c1F (centres unmarked)

>  <Emax (%)>
7.83

$$$$
>  <molecule>
CCN(C)S(=O)(=O)Nc1ccc(F)c(C(=O)c2c[nH]c3ncc(-c4cnc(N5CCN(C(=O)Cc6ccc(N7CCN(C8CCC(=O)NC8=O)C(=O)C7)cc6)CC5)nc4)cc23)c1F (centres unmarked)

>  <Emax (%)>
7.42

$$$$
>  <molecule>
CCN(C)S(=O)(=O)Nc1ccc(F)c(C(=O)c2c[nH]c3ncc(-c4cnc(N5CCN(CCN6CCC(c7ccc(NC8CCC(=O)NC8=O)cc7)CC6=O)CC5)nc4)cc23)c1F (centres unmarked)

>  <Emax (%)>
9.32

$$$$
